test_details: Evaluation of conversion rate to active form in buffer solution (Experimental Example 1)
Format: physicochemical
conditions_used: pH7.0, 3 hr
Each entry falls in a class defined on Production rate of Alvocidib; the bands are band A = under 20%, band B = from 20% up to 90%, band C = 90% and over

Completed entries (count: 2):
CN1CC[C@H](c2c(O)cc(O)c3c(=O)cc(-c4ccccc4Cl)oc23)[C@H](OC(=O)CN)C1 [Comparative Example 8, reference compound]    band B
CCOC(=O)O[C@@H]1CN(C)CC[C@@H]1c1c(O)cc(O)c2c(=O)cc(-c3ccccc3Cl)oc12 [Comparative Example 3, reference compound]    band A

Now, please, on to the next compound.
Ask | Note: place this compound into its band. Item: CNC(=O)Oc1cc(O)c2c(=O)cc(-c3ccccc3Cl)oc2c1[C@H]1CCN(C)C[C@H]1O [Comparative Example 2, reference compound]
Reply | band C
